Readings of log10 of CLint for the listed compounds
# Assay overview: Intrinsic clearance in mouse liver microsomes
# Type: in vitro ADME
Recorded CLint (log10, mL/min/g)

Examples with answers:
- Compound: "CCOc1cnc2nc(-c3cccc(NC(=O)c4ccco4)c3)cn2c1 [Compound 3]"
  log10 of CLint: 0.26
- Compound: "O=C(Nc1ccc(F)c(-c2cn3nc(-c4ccccc4)cnc3n2)c1)N1CCCC1 [Compound 7]"
  log10 of CLint: 0.23
- Compound: "O=C(Nc1ccc(F)c(-c2ccn3c(N4CCOCC4)cnc3n2)c1)N1CCCC1 [Compound 8]"
  log10 of CLint: -0.11
- Compound: "O=C(Nc1ccc(F)c(-c2cn3nc(N4CCOCC4)cnc3n2)c1)N1CCCC1 [Compound 7a]"
  log10 of CLint: -0.04
- Compound: "O=C(Nc1cccc(-c2cn3cccnc3n2)c1)c1ccco1 [Compound 2]"
  log10 of CLint: 0.93

q: Quick check: log10 of CLint of O=C(Nc1cccc(-c2cn3cc(N4CCOCC4)cnc3n2)c1)N1CCCC1 [Compound 5] ?
a: -0.12

q: Quick check: log10 of CLint of O=C(Nc1cccc(-c2nc3ncccc3o2)c1)c1ccco1 [Compound 1] ?
a: 1.38

q: Quick check: log10 of CLint of O=C(Nc1ccc(F)c(-c2cn3cc(-c4ccccc4)cnc3n2)c1)N1CCCC1 [Compound 6] ?
a: 0.41

q: Quick check: log10 of CLint of CCOc1cnc2nc(-c3cccc(NC(=O)N4CCCC4)c3)cn2c1 [Compound 4] ?
a: -0.23

###

# Assay overview: Pharmacokinetics in male beagle dogs
# Format: in vivo, dog
# Test parameters: male, beagle, dog, whole blood, iv, 3 mg/kg, dog, 3 mg/kg iv 0.5 h infusion; read-out: Vss
Value type: Vd (L/kg)
Could you give me the number in L/kg? Just the number is fine.

q: Quick check: Vd of O=C(Nc1ccc(F)c(-c2ccn3c(N4CCOCC4)cnc3n2)c1)N1CCCC1 [Compound 8] ?
a: 1.34

###

# Test system: L. donovani promastigotes
# Assay overview: microbe, parasite or virus in culture
# Assay type: cell-based, Leishmania donovani
# Test parameters: Leishmania donovani, WT promastigotes
Value type: EC50 (nM)
Could you give me the number in nM? Just the number is fine.

Examples with answers:
- Compound: "O=C(Nc1ccc(F)c(-c2cn3nc(-c4ccccc4)cnc3n2)c1)N1CCCC1"
  Tested target: "L. donovani promastigotes"
  EC50 [nM]: 3.5
- Compound: "CC(C)C[C@H](NC(=O)[C@H](Cc1ccccc1)NC(=O)c1cnccn1)B(O)O [bortezomib, reference compound]"
  Tested target: "L. donovani promastigotes"
  EC50 [nM]: 31

Next, consider the following compound.
q: Quick check: EC50 of "O=C(Nc1ccc(F)c(-c2ccn3c(N4CCOCC4)cnc3n2)c1)N1CCCC1" ?
a: 14.6

###

# Test system: bloodstream T. brucei
# Assay overview: T. brucei stem-loop RNAi knock-down lines, drug sensitivity
# Type: cell-based, Trypanosoma brucei
# Test parameters: Trypanosoma brucei, Tb927.8.6620 RNAi induced
Value type: EC50 (nM)
Could you give me the number in nM? Just the number is fine.

q: Form field - read-out: EC50; system: bloodstream T. brucei; submitted item: "O=C(Nc1ccc(F)c(-c2cn3nc(-c4ccccc4)cnc3n2)c1)N1CCCC1"
a: 8.7

###

Readings of solubility for the listed compounds
# Assay overview: CAD (charged aerosol detector) solubility
Could you give me the number in µg/mL? Just the number is fine.

q: Quick check: solubility of "O=C(Nc1ccc(F)c(-c2cn3cc(N4CCOCC4)cnc3n2)c1)N1CCCC1" ?
a: 39

q: Quick check: solubility of "CCOc1cnc2nc(-c3cccc(NC(=O)c4ccco4)c3)cn2c1" ?
a: 7

q: Quick check: solubility of "O=C(Nc1cccc(-c2nc3ncccc3o2)c1)c1ccco1" ?
a: 58

q: Quick check: solubility of "O=C(Nc1cccc(-c2cn3cc(N4CCOCC4)cnc3n2)c1)N1CCCC1" ?
a: 43

q: Quick check: solubility of "O=C(Nc1ccc(F)c(-c2cn3cc(-c4ccccc4)cnc3n2)c1)N1CCCC1" ?
a: 8

###

# System: L. donovani promastigotes
# Assay overview: microbe, parasite or virus in culture
# Assay type: cell-based, Leishmania donovani
# Test parameters: Leishmania donovani, WT, overexpression experiment (Fig. 3D)
Value type: EC50

q: Quick check: EC50 of "O=C(Nc1ccc(F)c(-c2cn3nc(-c4ccccc4)cnc3n2)c1)N1CCCC1" ?
a: 9.4 nM

###

# Tested target: chymotrypsin-like activity of the L. donovani proteasome (Leishmania donovani, UniProt A0A3S7XA80+A0ACM8QMP6)
# Assay overview: biochemical
Value type: IC50

q: Quick check: IC50 of "O=C(Nc1ccc(F)c(-c2ccn3c(N4CCOCC4)cnc3n2)c1)N1CCCC1" ?
a: 160 nM

###

# System: Host Cell
# Assay overview: Host cell toxicity in the clinical strain panel
# Assay type: cell-based
# Test parameters: strain MHOM/IN/2002/BHU1
pEC50: −log10 of the molar value.
Value type: pEC50

q: Quick check: pEC50 of "O=C(Nc1ccc(F)c(-c2ccn3c(N4CCOCC4)cnc3n2)c1)N1CCCC1" ?
a: < 4.30

###

# Tested target: human purified 26S proteasome (Homo sapiens, UniProt P28074+P49721)
# Assay overview: Proteasome activity assay, chymotrypsin-like, purified human 26S
Value type: IC50

q: Quick check: IC50 of "O=C(Nc1ccc(F)c(-c2ccn3c(N4CCOCC4)cnc3n2)c1)N1CCCC1" ?
a: 13 µM

###

# Assay overview: Pharmacokinetics in male Sprague Dawley rats
# Type: in vivo
# Test parameters: male, Sprague Dawley, whole blood; rat, 3 mg/kg iv bolus
Value type: clearance (mL/min/kg)
Could you give me the number in mL/min/kg? Just the number is fine.

q: Quick check: clearance of O=C(Nc1ccc(F)c(-c2ccn3c(N4CCOCC4)cnc3n2)c1)N1CCCC1 [Compound 8] ?
a: 17

###

# Assay overview: Pharmacokinetics in male Sprague Dawley rats
# Assay type: in vivo
# Test parameters: male, Sprague Dawley, whole blood; rat, 3 mg/kg iv bolus; read-out: Vss
# Protocol: Male Sprague Dawley rats (n=3) were dosed either intravenously at a target dose of 3 mg/kg or orally at a target dose of 10, 30, 100 and 300 mg/kg. […] Samples were analyzed for parent compound using a method based on protein precipitation followed by UPLC-MS/MS. […] Following the intravenous administration, the whole blood clearance was calculated by determining the dose administered to each animal and dividing by the AUC0-∞ . […]
Value type: Vd (L/kg)
Could you give me the number in L/kg? Just the number is fine.

q: Quick check: Vd of O=C(Nc1ccc(F)c(-c2ccn3c(N4CCOCC4)cnc3n2)c1)N1CCCC1 [Compound 8] ?
a: 1

###

Readings of solubility for the listed molecules
# Assay overview: Solubility in fasted simulated intestinal fluid (FaSSIF)
# Test parameters: fasted simulated intestinal fluid (FaSSIF), fassif
Could you give me the number in µg/mL? Just the number is fine.

Examples with answers:
- Smi: "O=C(Nc1ccc(F)c(-c2ccn3c(N4CCOCC4)cnc3n2)c1)N1CCCC1"
  solubility (µg/mL): 180
- Smi: "O=C(Nc1ccc(F)c(-c2cn3cc(N4CCOCC4)cnc3n2)c1)N1CCCC1"
  solubility (µg/mL): 6
- Smi: "O=C(Nc1ccc(F)c(-c2cn3nc(-c4ccccc4)cnc3n2)c1)N1CCCC1"
  solubility (µg/mL): 1

Next, consider the following molecule.
q: Quick check: solubility of "O=C(Nc1ccc(F)c(-c2cn3cc(-c4ccccc4)cnc3n2)c1)N1CCCC1" ?
a: 4

###

# Assay overview: Pharmacokinetics in male beagle dogs
# Format: in vivo, dog
# Test parameters: male, beagle, whole blood; dog, 3 mg/kg iv 0.5 h infusion
# Procedure: 5. Intrinsic clearance (CLint) […] 6. Pharmacokinetic studies. Mouse pharmacokinetic studies were conducted in male CD-1 mice and male beagle dogs. 3 animals per group were used for each study performed. […] Peripheral blood samples were obtained at 5, 15, 30 min, 1, 2, 4, 6 ,8 and 24 h after intravenous administration and 15, 30, 45 min,1, 2, 4, 6, 8 and 24 h after oral administration. […] Quantification was performed by means of LC-MS/MS (API4000), with a lower limit of quantification of 1 ng/mL. […]
Value type: clearance (mL/min/kg)
Could you give me the number in mL/min/kg? Just the number is fine.

q: Quick check: clearance of O=C(Nc1ccc(F)c(-c2ccn3c(N4CCOCC4)cnc3n2)c1)N1CCCC1 [Compound 8] ?
a: 29.6

###

# Assay overview: Pharmacokinetics in male CD-1 mice
# Format: in vivo, mouse
# Test parameters: male, CD-1, whole blood; mouse, 3 mg/kg iv bolus
# Procedure: 5. Intrinsic clearance (CLint) […] 6. Pharmacokinetic studies. Mouse pharmacokinetic studies were conducted in male CD-1 mice and male beagle dogs. 3 animals per group were used for each study performed. […] Peripheral blood samples were obtained at 5, 15, 30 min, 1, 2, 4, 6 ,8 and 24 h after intravenous administration and 15, 30, 45 min,1, 2, 4, 6, 8 and 24 h after oral administration. […] Quantification was performed by means of LC-MS/MS (API4000), with a lower limit of quantification of 1 ng/mL. […]
Value type: clearance

q: Quick check: clearance of "O=C(Nc1ccc(F)c(-c2ccn3c(N4CCOCC4)cnc3n2)c1)N1CCCC1" ?
a: 40.7 mL/min/kg
